# Tested on: Streptococcus pyogenes
# EXPERIMENTAL PROTOCOL: MIC by agar dilution, SPYO 152
# Format: cell-based
# CONDITION LABEL: strain SPYO 152
# Text: The in vitro activity of compounds of this invention can be assessed by standard testing procedures such as the determination of minimum inhibitory concentration (MIC) by agar dilution as described in “Approved Standard.
Quick reference for Antibacterial Activity Minimum Inhibitory Concentration SPYO 152 among some compounds
Unit µg/mL implied. Number only.

Solved cases below.
Fill blank: measured Antibacterial Activity Minimum Inhibitory Concentration SPYO 152 of the compound "CC(=O)N=S1(=O)CCN(c2ccc(N3C[C@H](CNC(C)=O)OC3=O)cc2F)CC1" is ____.
2

Fill blank: measured Antibacterial Activity Minimum Inhibitory Concentration SPYO 152 of the compound CCC(=S)NC[C@H]1CN(c2ccc(C3CCS(=O)(=NC(C)=O)CC3)c(F)c2)C(=O)O1 (single isomer, unassigned) is ____.
0.25

Fill blank: measured Antibacterial Activity Minimum Inhibitory Concentration SPYO 152 of the compound COC(=O)N=S1(=O)CCC(c2ccc(N3C[C@H](CNC(=S)C4CC4)OC3=O)cc2F)CC1 (single isomer, unassigned) is ____.
0.5

More entries:
Fill blank: measured Antibacterial Activity Minimum Inhibitory Concentration SPYO 152 of the compound CC(=O)NC[C@H]1CN(c2ccc(C3CCS(=N)(=O)CC3)c(F)c2)C(=O)O1 (single isomer, unassigned) [Example 4] is ____.
1

Fill blank: measured Antibacterial Activity Minimum Inhibitory Concentration SPYO 152 of the compound CC(=O)NC[C@H]1CN(c2ccc(C3CCS(=O)(=NC(=O)OCc4ccccc4)CC3)c(F)c2)C(=O)O1 (single isomer, unassigned) is ____.
1
